test-system: T1, human CD40-Fc protein (amino acid residue 21-193 of SEQ ID NO: 67 linked to N-terminus of amino acid residue … (human, biotin-labeled in the capture ELISA and in the benchmark blocking ELISA; unlabeled when coated in the ligand blocking ELISA)
T1 construct: also called biotin-labeled human CD40-Fc; human CD40-Fc-biotin
T1 sequence (chain, as listed by the source): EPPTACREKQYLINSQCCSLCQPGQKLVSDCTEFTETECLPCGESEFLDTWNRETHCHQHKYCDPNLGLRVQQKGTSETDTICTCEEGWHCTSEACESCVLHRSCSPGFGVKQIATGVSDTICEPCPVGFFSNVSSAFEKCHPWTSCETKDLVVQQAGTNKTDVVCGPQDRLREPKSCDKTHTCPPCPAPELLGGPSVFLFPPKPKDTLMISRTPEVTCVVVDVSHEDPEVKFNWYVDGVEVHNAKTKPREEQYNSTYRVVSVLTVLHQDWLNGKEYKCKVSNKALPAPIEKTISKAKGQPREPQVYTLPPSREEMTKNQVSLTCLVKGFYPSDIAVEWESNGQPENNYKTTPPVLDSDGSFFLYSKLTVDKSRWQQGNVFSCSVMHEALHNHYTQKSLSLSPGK
protocol: capture ELISA, biotin human CD40-Fc; mAb at 2000 ng/mL
// reported absorbance at 450 nm per item
Please respond with the number in OD450 and leave the unit unwritten.

For orientation, consider the following solved cases.
{"columns": ["binder", "result-type", "unit-symbol", "obs-value"],
 "data": [
  ["mouse anti-CD40 monoclonal antibody C1C1 (antibody, V domains shown, those are used here for the chimeric antibody only; also called Mouse C1C1; mouse C1C1) VH: EVKLVESGGGLVKPGASLKLSCAASGFTFSNYGMSWVRQNSDKRLEWVASISSGGDDTYYPDNVKGRCTISRENAKNTLYLEMSSLKTEDTALYYCTRAGGKAMDYWGQGTSVTVST VL: DIVLTQSPATLSVIPGNSVSLSCRASQSIRDNLHWYQQKSHESPRLLINYASQSISGIPSRFSGSGSGTDFTLTINSVETEDFGIYFCQQFNSWPLTFGGGTKLELK", "absorbance at 450 nm", "OD450", 1.75],
  ["humanized antibody huC1C1-V2 (antibody, human IgG1, kappa, V domains shown, Human IgG1/kappa) VH: EVQLVESGGGVVQPGRSLRLSCAASGFTFSNYGMSWVRQAPGKGLEWVASISSGGDDTYYPDNVKGRFTISRDNSKNTLYLQMNSLRAEDTAVYYCTRAGGKAMDYWGQGTLVTVSS VL: EIVLTQSPATLSLSPGERATLSCRASQSIRDNLHWYQQKPGQSPRLLINYASQSISGIPARFSGSGSGTDFTLTISSLEPEDFAVYFCQQFNSWPLTFGQGTKVEIKR", "absorbance at 450 nm", "OD450", 1.72]
]}

Q: Could you tell me which absorbance at 450 nm is on file for chimeric antibody C1C1 (antibody, human IgG1, kappa, V domains shown, also called chC1C1; chimeric C1C1) VH: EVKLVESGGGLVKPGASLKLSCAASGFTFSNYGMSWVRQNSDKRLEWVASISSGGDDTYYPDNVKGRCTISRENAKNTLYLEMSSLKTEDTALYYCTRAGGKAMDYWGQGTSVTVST VL: DIVLTQSPATLSVIPGNSVSLSCRASQSIRDNLHWYQQKSHESPRLLINYASQSISGIPSRFSGSGSGTDFTLTINSVETEDFGIYFCQQFNSWPLTFGGGTKLELKR ?
A: 1.83
